Test system: E. cloacae
Test: AK assay 384-well format, Prestwick library screening
Type: cell-based, Enterobacter cloacae
Conditions: Enterobacter cloacae, 3 h; planktonic E. cloacae; 50 μM final drug concentration; positive cutoff 3-fold increase; read-out: AK-based Prestwick library screening result, E. cloacae (fold increase in extracellular AK activity)
Where a name gives a salt, the structure may show the parent alone.
Decision: fold induction at 50 µM compared against 1; not below it gives met, below it gives not met.

- COMPOUND: "CO/N=C(\\C(=O)N[C@@H]1C(=O)N2C(C(=O)O)=C(C[N+]3(C)CCCC3)CS[C@H]12)c1csc(N)n1 [Cefepime hydrochloride]"
  STUDY_SYSTEM: "E. cloacae"
  LABEL_CLASS: "met"
- COMPOUND: "Cc1nccn1CC1CCc2c(c3ccccc3n2C)C1=O (stereo not drawn) [Ondansetron Hydrochloride]"
  STUDY_SYSTEM: "E. cloacae"
  LABEL_CLASS: "not met"
- COMPOUND: "NC(=O)c1ncn([C@@H]2O[C@H](CO)[C@@H](O)[C@H]2O)n1 [Ribavirin]"
  STUDY_SYSTEM: "E. cloacae"
  LABEL_CLASS: "met"
- COMPOUND: "C[C@@H]1CN([C@H]2CC[C@](C#N)(c3ccc(F)cc3)CC2)CC[C@]1(C(=O)O)c1ccccc1 [Levocabastine hydrochloride]"
  STUDY_SYSTEM: "E. cloacae"
  LABEL_CLASS: "met"
- COMPOUND: "C=CCOc1ccccc1OCC(O)CNC(C)C (stereo not drawn) [Oxprenolol hydrochloride]"
  STUDY_SYSTEM: "E. cloacae"
  LABEL_CLASS: "not met"
- COMPOUND: "CC1CS(=O)(=O)CCN1/N=C/c1ccc([N+](=O)[O-])o1 (stereo not drawn) [Nifurtimox]"
  STUDY_SYSTEM: "E. cloacae"
  LABEL_CLASS: "met"
- COMPOUND: "CNNCc1ccc(C(=O)NC(C)C)cc1 [Procarbazine hydrochloride]"
  STUDY_SYSTEM: "E. cloacae"
  LABEL_CLASS: "met"
- COMPOUND: "CC(=O)O[C@]1(C(C)=O)CC[C@H]2[C@@H]3C=C(Cl)C4=CC(=O)[C@@H]5C[C@@H]5[C@]4(C)[C@H]3CC[C@@]21C [Cyproterone acetate]"
  STUDY_SYSTEM: "E. cloacae"
  LABEL_CLASS: "met"

* * *

Tested on: E. cloacae
Experiment: AK assay 384-well format, Prestwick library screening
Format: cell-based, Enterobacter cloacae
Settings: Enterobacter cloacae, 3 h; planktonic E. cloacae; 50 μM final drug concentration; cutoff for positive-scoring molecules 3-fold increase; read-out: AK-based Prestwick Library Screening Results, E. cloacae (increase in extracellular AK activity)
Structures can show the parent of a compound that is named as a salt.
QUANTITY: fold induction at 50 µM

- MOLECULE: "CC(Cc1cccc(C(F)(F)F)c1)NCCOC(=O)c1ccccc1 (stereo not drawn) [Benfluorex hydrochloride]"
  VALUE_OBSERVED: 1.4
- MOLECULE: "CC[C@H](C)C(=O)O[C@H]1C[C@@H](C)C=C2C=C[C@H](C)[C@H](CC[C@@H]3C[C@@H](O)CC(=O)O3)[C@H]21"
  VALUE_OBSERVED: 1.2
- MOLECULE: "O=C(O)CCCC[C@@H]1SC[C@@H]2NC(=O)N[C@@H]21"
  VALUE_OBSERVED: 0.8
- MOLECULE: "N[C@@H](C(=O)N[C@@H]1C(=O)N2C(C(=O)O)=C(Cl)CS[C@H]12)c1ccccc1"
  VALUE_OBSERVED: 0.7
- MOLECULE: "CC[C@H]1CN2CCc3cc(OC)c(OC)cc3[C@@H]2C[C@@H]1C[C@H]1NCCc2cc(OC)c(OC)cc21 [Emetine dihydrochloride]"
  VALUE_OBSERVED: 0.5
- MOLECULE: "C=C(C)[C@@H]1CC[C@]2(C(=O)O)CC[C@]3(C)[C@H](CC[C@@H]4[C@@]5(C)CC[C@H](O)C(C)(C)[C@@H]5CC[C@]43C)[C@@H]12"
  VALUE_OBSERVED: 0.7
- MOLECULE: "O=C(/C=C/c1ccc(O)c(O)c1)O[C@@H]1C[C@](O)(C(=O)O)C[C@@H](O)[C@H]1O"
  VALUE_OBSERVED: 0.8
- MOLECULE: "O=c1[nH]c2ccccc2n1CCCN1CCC(n2c(=O)[nH]c3cc(Cl)ccc32)CC1"
  VALUE_OBSERVED: 0.8
- MOLECULE: "CCN(CC)C(=O)c1ccc(O)c(OC)c1"
  VALUE_OBSERVED: 0.9
- MOLECULE: "CN1CCCC(CC2c3ccccc3Sc3ccccc32)C1 (stereo not drawn) [Metixene hydrochloride]"
  VALUE_OBSERVED: 0.8
- MOLECULE: "CCCOc1ccccc1-c1nc2nn[nH]c2c(=O)[nH]1"
  VALUE_OBSERVED: 0.8
- MOLECULE: "OC(CCN1CCCCC1)(c1ccccc1)C1CC2C=CC1C2 (stereo not drawn) [Biperiden hydrochloride]"
  VALUE_OBSERVED: 0.9
- MOLECULE: "CCCc1cc(=O)[nH]c(=S)[nH]1"
  VALUE_OBSERVED: 1.1
- MOLECULE: "O=C(CCCN1CCC(O)(c2ccc(Br)cc2)CC1)c1ccc(F)cc1"
  VALUE_OBSERVED: 1.1
- MOLECULE: "C[C@@H](O)[C@H]1C(=O)N2C(C(=O)O)=C(SCCN=CN)C[C@H]12"
  VALUE_OBSERVED: 2.4
- MOLECULE: "C[C@]12C[C@H](O)[C@H]3[C@@H](CCC4=CC(=O)CC[C@@]43C)[C@@H]1CC[C@@H]2C(=O)CO"
  VALUE_OBSERVED: 1.2
- MOLECULE: "CC(C)N1CCN(c2ccc(OCC3COC(Cn4cncn4)(c4ccc(Cl)cc4Cl)O3)cc2)CC1 (stereo not drawn)"
  VALUE_OBSERVED: 0.9
- MOLECULE: "CN(C)/N=N/c1[nH]cnc1C(N)=O"
  VALUE_OBSERVED: 0.8

* * *

System: K. pneumoniae
Experiment: AK assay 384-well format, Prestwick library screening
Type: cell-based, Klebsiella pneumoniae
Conditions: Klebsiella pneumoniae, 3 h; 50 μM final drug concentration; planktonic; cutoff for positive-scoring molecules 3-fold increase; read-out: AK-based Prestwick Library Screening Results, K. pneumoniae (fold increase in extracellular AK activity)

- MOLECULE: "Nc1nc(O)c2ncn(COC(CO)CO)c2n1"
  fold induction at 50 µM: 0.7
- MOLECULE: "COc1ccc(C(Cl)=C(c2ccc(OC)cc2)c2ccc(OC)cc2)cc1"
  fold induction at 50 µM: 0.8
- MOLECULE: "NC(=O)c1ccc[n+]([C@@H]2O[C@H](COP(=O)([O-])OP(=O)(O)OC[C@H]3O[C@@H](n4cnc5c(N)ncnc54)[C@H](O)[C@@H]3O)[C@@H](O)[C@H]2O)c1 [Nadide]"
  fold induction at 50 µM: 0.7
- MOLECULE: "O=c1cc(-c2ccccc2)oc2cc(O)cc(O)c12"
  fold induction at 50 µM: 0.2
- MOLECULE: "C[N+]1(C)C[C@H](O)C[C@H]1C(=O)[O-]"
  fold induction at 50 µM: 0.6
- MOLECULE: "CCCCN(CCCC)CCCOC(=O)c1ccc(N)cc1"
  fold induction at 50 µM: 0.8
- MOLECULE: "CCCCC1(COC(=O)CCC(=O)O)C(=O)N(c2ccccc2)N(c2ccccc2)C1=O"
  fold induction at 50 µM: 0.6
- MOLECULE: "COc1ccc2cc1Oc1ccc(cc1)C[C@H]1c3cc(c(OC)cc3CCN1C)Oc1c(OC)c(OC)cc3c1[C@H](C2)N(C)CC3"
  fold induction at 50 µM: 0.9

* * *

This listing pairs compounds with measured fold induction at 50 µM.
System: K. pneumoniae
Experiment: AK assay 384-well format, Prestwick library screening
Type: cell-based, Klebsiella pneumoniae
Conditions: Klebsiella pneumoniae, 3 h; planktonic K. pneumoniae; 50 μM final drug concentration; positive cutoff 3-fold increase; read-out: AK-based Prestwick library screening result, K. pneumoniae (fold increase in extracellular AK activity)
Where a name gives a salt, the structure may show the parent alone.

- COMPOUND: "O=C(O)[C@]1(O)C[C@@H](O)[C@@H](O)[C@H](O)C1"
  STUDY_SYSTEM: "K. pneumoniae"
  fold induction at 50 µM: 1.3
- COMPOUND: "NC(=O)c1ncn([C@@H]2O[C@H](CO)[C@@H](O)[C@H]2O)n1"
  STUDY_SYSTEM: "K. pneumoniae"
  fold induction at 50 µM: 0.7
- COMPOUND: "O=C(O)/C=C/c1ccc(Cn2ccnc2)cc1 [Ozagrel hydrochloride]"
  STUDY_SYSTEM: "K. pneumoniae"
  fold induction at 50 µM: 0.5
- COMPOUND: "Cc1c(OCC(F)(F)F)ccnc1C[S+]([O-])c1nc2ccccc2[nH]1 (stereo not shown)"
  STUDY_SYSTEM: "K. pneumoniae"
  fold induction at 50 µM: 0.5
